These data points were gathered from paper PMC10885115.

- tgt: general esterases
- test.details: General esterase inhibition in T. urticae protein homogenate
- study.conditions: pure compounds, read-out: Est IC50 (95% interval confidence)
pIC50: −log10 of the molar value.
Property: pIC50; scope: individual compounds
quantity.name: pIC50

> print(dat)
                                test.smiles  quantity.name  result
1  COc1ccc2cc3[n+](cc2c1OC)CCc1cc2c(cc1-3)OCO2          pIC50  < 3.52
2    COc1c(O)ccc2cnc3c4cc5c(cc4ccc3c12)OCO5          pIC50    3.54
3  COc1ccc2c(c[n+](C)c3c4cc5c(cc4ccc23)OCO5)c1OC          pIC50  < 3.52
4  COc1ccc2cc3[n+](cc2c1O)CCc1cc2c(cc1-3)OCO2          pIC50  < 3.52

====

- System: P450 monooxygenase (PMO)
- test.details: PMO inhibition in T. urticae protein homogenate
- Assay type: biochemical, Tetranychus urticae
- study.conditions: pure compounds, read-out: PMO IC50 (95% interval confidence)
quantity.name: IC50 (µM)

> print(dat)
                                   compound  readout.number
1  COc1ccc2c(c[n+](C)c3c4cc5c(cc4ccc23)OCO5)c1OC [Compound 4, chelerythrine]            89.6
2  COc1ccc2cc3[n+](cc2c1OC)CCc1cc2c(cc1-3)OCO2 [Compound 6, berberine]             386
3  COc1ccc2cc3[n+](cc2c1O)CCc1cc2c(cc1-3)OCO2 [Compound 3, berberrubine]            62.7
4  COc1c(O)ccc2cnc3c4cc5c(cc4ccc3c12)OCO5 [Compound 9, zanthoxyline]            8.37
